For each of the compounds below, state its viability at 28.5 h, 10 µM.
Test: in vitro
Conditions: human, hela cells, % viability
One number for each entry, in %.

compound | viability at 28.5 h, 10 µM / %
CC1CCCC(C)N1C(=O)Cn1cnc2c(Cl)cc(Cl)cc2c1=O (stereo not shown) [CBK306222] | 85.7
Oc1cccc(Sc2cc(C(F)(F)F)ccn2)c1 [CBK115273] | 97.7
CN1CCN(S(=O)(=O)c2cccc3nsnc23)CC1 [CBK062428] | 102
COCCNC(=O)C1CCN(c2nc3c(-c4cccc(C)c4)csc3c(=O)[nH]2)CC1 [CBK215629] | 93.1
CCn1nc2c(C)cc3cc(OC)ccc3n2c1=O [CBK283823] | 74.6

Hey, can you go through the list below and give me viability at 28.5 h, 10 µM for every item?
1. Cc1cc(C)cc(N(CC(=O)Nc2ccccc2-c2ccccc2)S(=O)(=O)c2ccccc2)c1 [CBK265933]
2. CSc1ccc(-c2cnc(N)c(-c3ccc(C(=O)N4CCOCC4)cc3)n2)cc1 [CBK084539]
3. O=C(O)c1ccc(NCc2ccccc2OCc2ccc(F)cc2)cc1 [CBK266487]
4. COCCNc1nc(-c2cccs2)cn2ccnc12 [CBK066408]
5. CN(C)CCCN(Cc1cnn(C)c1)Cc1ccco1 [CBK283039]
6. O=C(Nc1cccnc1)c1cc(S(=O)(=O)N2CCCCC2)c(Cl)cc1Cl [CBK264567]
7. CCCCOC(=O)c1c(N)n(CCOC)c2nc3ccccc3nc12 [CBK264961]

92.4
109
101
99.3
112
91.9
96.9

Notebook: Fc1ccc(Oc2nccnc2N2CCN(CCOc3cccnc3)CC2)cc1 [CBK083037T] , viability at 28.5 h, 10 µM read as 98.7

These data points were gathered from paper PMC12040169.
